# TARGET ENTITY: T1, hGCGR-mmh (human)
# T1 construct: also called REGN547; monovalent hGCGR
# T1 chain: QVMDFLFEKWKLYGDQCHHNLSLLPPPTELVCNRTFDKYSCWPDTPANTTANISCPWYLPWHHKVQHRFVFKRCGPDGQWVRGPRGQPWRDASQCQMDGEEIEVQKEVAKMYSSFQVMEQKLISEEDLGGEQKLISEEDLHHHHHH
# PROTOCOL: SPR Biacore T100, 25C, mAb captured, antigen flowed
METRIC: kon (M⁻¹ s⁻¹)

[
  {
    "BINDER": "H4H1328P (antibody, V domains shown, Fully human anti-GCGR antibody; the controls are called isotype-matched hIgG4) VH: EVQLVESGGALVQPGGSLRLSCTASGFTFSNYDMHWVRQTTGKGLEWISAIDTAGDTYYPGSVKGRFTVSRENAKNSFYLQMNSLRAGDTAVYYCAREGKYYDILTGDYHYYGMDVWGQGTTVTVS VL: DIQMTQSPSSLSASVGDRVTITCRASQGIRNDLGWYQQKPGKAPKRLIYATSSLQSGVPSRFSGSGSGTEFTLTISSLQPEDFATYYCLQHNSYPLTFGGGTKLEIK",
    "U": "M⁻¹ s⁻¹",
    "QUANTITATIVE READOUT": "1.03e+06"
  },
  {
    "BINDER": "H4H1339P (antibody, V domains shown, Fully human anti-GCGR antibody; the controls are called isotype-matched hIgG4) VH: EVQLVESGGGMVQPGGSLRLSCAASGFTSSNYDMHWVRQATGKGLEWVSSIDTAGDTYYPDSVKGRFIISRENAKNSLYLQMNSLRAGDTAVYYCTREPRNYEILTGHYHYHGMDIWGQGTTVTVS VL: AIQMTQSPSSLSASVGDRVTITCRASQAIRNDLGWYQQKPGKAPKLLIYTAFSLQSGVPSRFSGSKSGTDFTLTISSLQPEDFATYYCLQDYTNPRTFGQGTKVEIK",
    "U": "M⁻¹ s⁻¹",
    "QUANTITATIVE READOUT": 645000
  },
  {
    "BINDER": "H4H1331P (antibody, V domains shown, Fully human anti-GCGR antibody; the controls are called isotype-matched hIgG4) VH: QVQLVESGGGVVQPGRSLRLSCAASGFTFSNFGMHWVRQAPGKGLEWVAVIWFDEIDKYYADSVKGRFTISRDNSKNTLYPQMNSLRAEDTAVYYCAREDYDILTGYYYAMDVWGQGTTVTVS VL: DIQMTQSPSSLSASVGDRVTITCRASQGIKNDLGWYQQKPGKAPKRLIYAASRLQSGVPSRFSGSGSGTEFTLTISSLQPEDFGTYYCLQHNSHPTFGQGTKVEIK",
    "U": "M⁻¹ s⁻¹",
    "QUANTITATIVE READOUT": 657000
  },
  {
    "BINDER": "H4H1765N (antibody, V domains shown, Anti-GCGR antibody from hybridoma; the controls are called isotype-matched hIgG4) VH: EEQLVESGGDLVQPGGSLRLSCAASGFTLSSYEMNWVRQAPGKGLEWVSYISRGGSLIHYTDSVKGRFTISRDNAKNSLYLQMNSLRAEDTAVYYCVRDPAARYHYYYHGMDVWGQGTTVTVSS VL: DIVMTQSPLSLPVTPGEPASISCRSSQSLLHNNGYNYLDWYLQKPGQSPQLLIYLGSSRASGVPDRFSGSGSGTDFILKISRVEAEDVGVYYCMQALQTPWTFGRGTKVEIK",
    "U": "M⁻¹ s⁻¹",
    "QUANTITATIVE READOUT": 326000
  },
  {
    "BINDER": "H4H1327P (antibody, V domains shown, also called anti-GCGR (hIgG4) antibody designated H4H1327P) VH: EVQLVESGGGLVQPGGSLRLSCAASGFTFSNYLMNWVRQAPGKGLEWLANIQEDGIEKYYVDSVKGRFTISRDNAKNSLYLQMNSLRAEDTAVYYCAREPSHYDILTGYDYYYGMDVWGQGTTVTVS VL: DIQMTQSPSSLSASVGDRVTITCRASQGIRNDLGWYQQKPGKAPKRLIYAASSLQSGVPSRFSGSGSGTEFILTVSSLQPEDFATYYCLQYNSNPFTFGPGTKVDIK",
    "U": "M⁻¹ s⁻¹",
    "QUANTITATIVE READOUT": 952000
  },
  {
    "BINDER": "H4H1321P (antibody, V domains shown, Fully human anti-GCGR antibody; the controls are called isotype-matched hIgG4) VH: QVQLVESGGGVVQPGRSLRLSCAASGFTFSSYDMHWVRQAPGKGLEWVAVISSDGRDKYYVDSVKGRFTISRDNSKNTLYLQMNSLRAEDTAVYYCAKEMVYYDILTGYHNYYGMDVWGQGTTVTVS VL: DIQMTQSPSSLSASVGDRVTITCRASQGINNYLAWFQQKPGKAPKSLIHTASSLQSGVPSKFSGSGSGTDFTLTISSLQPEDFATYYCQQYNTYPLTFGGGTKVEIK",
    "U": "M⁻¹ s⁻¹",
    "QUANTITATIVE READOUT": "1.06e+06"
  }
]
